# Tested on: CAL-51
# run.description: Antiproliferative activity against human CAL-51 cells assessed as inhibition of cell growth incubated for 72 hrs by MTT assay
# Format: functional, cell-based
# condition.notes: CAL-51, 72 h

{"smi": "CNC(=O)c1ccc(Nc2nc(O[C@H]3CCOC3)c3c(-c4ccc5nc(C)oc5c4)c[nH]c3n2)c(OC)c1", "IC50": "18 nM"}
{"smi": "CNC(=O)c1ccc(Nc2nc(OC3CCCC3)c3c(-c4cc[nH]n4)c[nH]c3n2)c(OC)c1", "IC50": "400 nM"}
{"smi": "COc1cc(C(=O)NC(C)(C)CO)ccc1Nc1nc(OC2CCCC2)c2c(-c3ccc4nc(C)oc4c3)c[nH]c2n1", "IC50": "100 nM"}
{"smi": "COc1cc(C(=O)NCC(C)(C)O)ccc1Nc1nc(OC2CCCC2)c2c(-c3ccc4nc(C)oc4c3)c[nH]c2n1", "IC50": "60 nM"}

###

# run.description: AUC in mouse
# Format: ADME, organism-based
# condition.notes: in vivo
AUC listing for selected compounds.

{"compound": "CCC(=O)N[C@H]1CC[C@@H](n2c(=O)cc(C)c3cnc(Nc4ccc(N5CCN(C(=O)CCCCC#Cc6ccc7c(c6)CN(C6CCC(=O)NC6=O)C7=O)CC5)cc4OC)nc32)CC1 (some centres not stated)", "AUC, µM·h": 2.33}
{"compound": "CCC(=O)N[C@H]1CC[C@@H](n2c(=O)cc(C)c3cnc(Nc4ccc(N5CCN(C(=O)CCC#Cc6ccc7c(c6)CN(C6CCC(=O)NC6=O)C7=O)CC5)cc4OC)nc32)CC1 (some centres not stated)", "AUC, µM·h": 2.23}

###

# run.description: Oral bioavailability in rat at 1 mg/kg
# Type: ADME, organism-based
# condition.notes: in vivo

{"smi": "Cn1cc(-c2cc3[nH]nc(-c4cccc(S(N)(=O)=O)c4)c3cc2OC2CCCCC2)cn1", "bioavailability / %": 17}

###

# run.description: Oral bioavailability in ICR mouse at 5 mg/kg by LC-MS/MS analysis
# Format: ADME, organism-based
# condition.notes: in vivo
value.type: bioavailability (%)

{"smi": "C[C@H](Oc1cc(C(=O)N(C)C)ccc1Nc1nc(O[C@H]2CC[C@@](C)(O)CC2)c2c(Cl)c[nH]c2n1)C(F)(F)F", "measure.unit": "%", "endpoint.result": 60}

###

# run.description: Clearance in Wistar rat at 1 mg/kg, iv measured after 24 hrs by LC-MS/MS analysis
# Assay type: ADME, organism-based
# condition.notes: in vivo

{"smi": "COc1ccc(Oc2cc(NCCC(F)(F)F)c3ncc(-c4ccc(C(=O)NC5CC5)c(C)c4)n3n2)c(F)c1F", "clearance / mL/min/kg": 8.67}

###

# run.description: Cmax in ICR mouse at 3 mg/kg, po
# Type: ADME, organism-based
# condition.notes: in vivo

{"smi": "C[C@H](Oc1cc(C(=O)N(C)C)ccc1Nc1nc(O[C@H]2CC[C@@](C)(O)CC2)c2c(Cl)c[nH]c2n1)C(F)(F)F", "Cmax / µM": 5.2}

###

# target.or.system: UniProt P24941

{"smi": "CN(C)C(=O)c1cc2cnc(Nc3ccc(-c4cncn4C)cc3Cl)cc2n1C(=O)OC(C)(C)C", "IC50": "> 100 µM"}
